Species: Rattus norvegicus
Assay: DrugMatrix - Regimen: Daily Repeat
Assay type: toxicity, organism-based, Sprague-Dawley
Parameters: regimen Daily Repeat, gender Male, age 6-8 weeks
Details: in vivo, iv, 0 mg/kg, 72 h, tissue Blood, dose level Control, time 3 day, vehicle 100 % SALINE
Endpoint Name: HEMATOCRIT (%)
Numbers only, in %.

Reference set, count: 3
Enquiry: I have this molecule here, CC(=O)[C@]1(O)Cc2c(O)c3c(c(O)c2[C@@H](O[C@H]2C[C@H](N)[C@H](O)[C@H](C)O2)C1)C(=O)c1ccccc1C3=O [IDARUBICIN] , and I need its recorded HEMATOCRIT.
Return: 33.98

Enquiry: I have this molecule here, CO[C@@]12[C@H](COC(N)=O)C3=C(C(=O)C(C)=C(N)C3=O)N1C[C@@H]1N[C@@H]12 [MITOMYCIN] , and I need its recorded HEMATOCRIT.
Return: 33.67

Enquiry: I have this molecule here, Cc1c(N)nc([C@H](CC(N)=O)NC[C@H](N)C(N)=O)nc1C(=O)N[C@H](C(=O)N[C@H](C)[C@@H](O)[C@H](C)C(=O)N[C@H](C(=O)NCCc1nc(-c2nc(C(=O)NCCC[S+](C)C)cs2)cs1)[C@@H](C)O)[C@@H](O[C@@H]1O[C@@H](CO)[C@@H](O)[C@H](O)[C@@H]1O[C@H]1O[C@H](CO)[C@@H](O)[C@H](OC(N)=O)[C@@H]1O)c1c[nH]cn1.[Br-] [BLEOMYCIN A2] , and I need its recorded HEMATOCRIT.
Return: 32.63

***
Enquiry: I have this molecule here, COC(=O)C[C@](O)(CCC(C)(C)O)C(=O)O[C@@H]1C(OC)=C[C@]23CCCN2CCc2cc4c(cc2[C@H]13)OCO4 [HARRINGTONINE] , and I need its recorded HEMATOCRIT.
Return: 34.63
